# target.system: hMC3-R (Homo sapiens, UniProt P41968)
# Construct: expressed in transfected cells
# Sequence (P41968 whole entry): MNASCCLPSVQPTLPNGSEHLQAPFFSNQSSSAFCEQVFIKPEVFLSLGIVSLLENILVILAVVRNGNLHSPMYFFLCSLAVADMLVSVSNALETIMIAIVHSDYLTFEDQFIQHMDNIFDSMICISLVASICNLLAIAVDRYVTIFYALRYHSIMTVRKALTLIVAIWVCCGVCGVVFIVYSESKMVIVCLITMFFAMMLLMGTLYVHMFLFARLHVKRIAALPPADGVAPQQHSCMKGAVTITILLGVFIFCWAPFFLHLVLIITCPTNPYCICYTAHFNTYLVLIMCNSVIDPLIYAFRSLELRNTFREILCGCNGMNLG
# assay.method.text: competitive inhibition binding assay, 125I-NDP-alpha-MSH, hMC3-R membranes
# measurement.parameters: 1 μM test peptide; 0.4 nM 125I-NDP-alpha-MSH; hMC3-R membranes
Square brackets hold non-standard residues; d marks the D form. Ends that are not written are not given here. Nle = CCCC[C@H](N)C(=O)O
value.type: % Inhibition at 1 μM at Melanocortin Receptor 3 (%)
Note: unit % is implicit; provide only the numeric part.

Look over these answered cases.
Tyr-Val-Nle-Gly-His-Cys-D-Phe-Arg-Trp-Asp-Arg-Phe-NH2 [3-7] (YV[Nle]GHC[dF]RWDRF-NH2; numbers in words are those of the source; also: oxorhenium(V) N3S1 chelate complex (Re=O)) : 50
Ac-Ser-Tyr-Ser-Nle-Glu-His-Phe-Arg-Trp-Gly-Lys-Gly-Val-D-Cys-NH2 (EHFRWGKGV; not fully specified; Ac-Ser-Tyr-Ser-Nle N-term; D-Cys; amide; printed: Glu-His-Phe-Arg-Trp-Gly-Lys-Gly-Val-) [2-1] : 72
Tyr-Val-Nle-Gly-His-Phe-Arg-Trp-Asp-Arg-Phe-Cys-NH2 (GHFRWDRFC; N-terminal Tyr-Val-Nle; C-terminal amide; printed: Gly-His-Phe-Arg-Trp-Asp-Arg-Phe-Cys-) [4-1] : 69

Here is another substance to look at.
Note to self: % Inhibition at 1 μM at Melanocortin Receptor 3 recorded for Tyr-Val-Nle-Gly-His-D-Phe-Arg-Cys-Asp-Arg-Phe-NH2 (YV[Nle]GH[dF]RCDRF-NH2; numbers in words are those of the source; also: oxorhenium(V) N3S1 chelate complex (Re=O)) [5-4] was 11
